Tested on: MS2 coat protein
Test: apparent KD of MS2 coat protein; designed switch direction (-1 OFF switch, 1 ON switch): -1; higher = weaker reporter binding
Conditions: Eterna round: R95; input ligand: microRNA oligo, concentration not stated
observation.type: apparent KD of MS2 coat protein (nM)

input.sequence	system	endpoint.result
AAAGUCGGAGGAUAUACAAUAGAUGACAAUAAAGUUGGAGUACAUGAGGAUCACCCAUGUAGAAGGCCGAGAAA [Swimmer becomes a laser gun] (puzzle: Exclusion 2)	MS2 coat protein	17.3
CGUGCGUAUGUGAGGAUAUGCUGGUCCUUGGAUCGGCAGAAGGCACAUGAGGAUCACCCAUGUGGUGUCGUUCC [salish99_Bmod_ex4_094] (puzzle: Brourd's mod of Exclusion 4)	MS2 coat protein	39
ACGCAACAUGAGGAUCACCCAUGUCAGGAUAUCCGGCGAAAACCCAAGAAGGGAAACCGGAGAAGGGACAAAGG [ChP 04-04-2015 #1] (puzzle: Exclusion 1)	MS2 coat protein	181
UUUUUCGAACAAGCUUCGUACAUGAGGAUCACCCAUGUUGGUAGAUUUGAGUAGGUUUGGAUGUAAGCUCGUCUUAU [JR_SV3TOV1_Sub082] (puzzle: Sensor v3, turn-off variant 1)	MS2 coat protein	313
CUGGUCCGAGGAUAUAUGAUGUGAAACAUGAGGAUCACCCAUGUAAUAUUAUGGAGGUAAAUAGAAGGCGGACUAG [Mat - Exclusion 5 - JL mod - D35] (puzzle: Exclusion 5)	MS2 coat protein	55.2
GAGGCUAAAGGAUAUACAUGAGGAUCACCCAUGUGGAGGAAGGUUAGAUGAGGAGAAGGUAGAAGGUUAGGCGA [JR_Exclu3_Sub093] (puzzle: Exclusion 3)	MS2 coat protein	23.6
UUUUGAUGAGGAUAUCGAGGUUAGUACAUGAGGAUCACCCAUGUUAUCCAGGUGUCGGUUCGAGAAGGUAUUGGAC [LRO-Ex5-16] (puzzle: Exclusion 5)	MS2 coat protein	16
UUUUAACAUGAGGAUCACCCAUGUGAGGAUAUCGAAAUUUAUAUUAAUAUUAAUAUAUCGAGAAGGCACAUUUU [JMF 24] (puzzle: Exclusion 1)	MS2 coat protein	74.9
AGAAGACAUGAGGAUCACCCAUGUAAGGAUAUCGAAGGUAAGAGAGGAAAGAAGGGAACGAGAAGGUACAGGUG [JR_Exclu1_Sub096] (puzzle: Exclusion 1)	MS2 coat protein	107
AAAAAGAGAGGAUAUACAACAAAACAAAACAAAACAAACACACAUGAGGAUCACCCAUGUAGAAGGCUCGAAAA [Exclusion 2 #2] (puzzle: Exclusion 2)	MS2 coat protein	16.5
GGUGCGUAUGUGAGGAUAUGCUGGUCCUUGGCUCAGCAGAAGGCACAUGAGGAUCACCCAUGUGGUGUCGUACC [salish99_Bmod_Ex4_027] (puzzle: Brourd's mod of Exclusion 4)	MS2 coat protein	229
GUAGAGUAAGGAUAUGCAGAAUAGGAUAGAAUGGAUAGAAUGCAGAAGGUACAUGAGGAUCACCCAUGUAAUGU [Excluse me!!!! 1 - Jieux - Exclusion 4] (puzzle: Exclusion 4)	MS2 coat protein	19.3
CUGAGGUAGCGGUCCUAUGACAUGAGGAUCACCCAUGUACCUUGCUACGAGCUUUUUGCUCGUCUUAUGAUUCUCGG [JL Atriat mod 4] (puzzle: Sensor v3, turn-off variant 1)	MS2 coat protein	93.9
GGUGCGUAUGUGAGGAUAUGCUGGUCCUUGGAUCGGCAGAAGGCACAUGAGGAUCACCCAUGUGGUGUCGUACA [salish99_Bmod_ex4_087] (puzzle: Brourd's mod of Exclusion 4)	MS2 coat protein	232
CUUCGUAUAGAGGAUAUAGGAUACUGCGGUGUCCUAGAAGGCUGUACAUGAGGAUCACCCAUGUACUUCAGAUC [Exclusion 6 - B - 14:c] (puzzle: Exclusion 6)	MS2 coat protein	12
CAGACACAUGAGGAUCACCCAUGUGAGGAUAUGCGUACGUUGUCCGUAGGCGACGUGCGCAGAAGGCGCAUAGG [JL-ex1-3.11 Eli mod] (puzzle: Exclusion 1)	MS2 coat protein	74.3
GAAAUACAUGAGGAUCACCCAUGUAAGGAUAUGCUAGCGGUCGGCUGACUGACUGCUAGCAGAAGGUACAUGAU [Mat - Mod of JL D81] (puzzle: Exclusion 1)	MS2 coat protein	67.5
UGUACUAACACGAUAGUGUUAGUACUAUAAGCUUGUGUUACAUGAGGAUCACCCAUGUCCUCAUAAGCUCGUCUUGA [Mat - Sensor v3 - Turn-off var 2 - D93] (puzzle: Sensor v3, turn-off variant 2)	MS2 coat protein	712
UGAUCUUGAGUCAGGAUAUGCUGGUAUUUUUACCAGCAGAAGGGACAUGAGGAUCACCCAUGUUCUCACUUUUU [Magic-13] (puzzle: Brourd's mod of Exclusion 4)	MS2 coat protein	10.5
GAAUAGGCAGGAUAUACAUGAGGAUCACCCAUGUGCUUGCGCUAGGCACGUGAACAACGUAGAAGGGCCUAGAC [ChP 13.04.2015 #11] (puzzle: Exclusion 3)	MS2 coat protein	12.1
GCGAAUAACGAGGAUAUCGUAUCGGAAACGAUACGAGAAGGUGUAACAUGAGGAUCACCCAUGUUCCUCAACGC [Fiskers Ex 6 - 7] (puzzle: Exclusion 6)	MS2 coat protein	33.1
